# Protocol details: NIH:OVCAR-3 ovarian cancer cell cytotoxicity, dose response, PAX8 inhibitor project, plate reader, dry powder samples (AID 743044)
# Condition notes: NIH:OVCAR-3 ovarian cancer cell viability; at 35 µM, stronger effect = lower value unless noted
Potency and affinity values are given separately. Records with an inconclusive call do not appear. Activity calls are given as the source filed them. How the calls were made is not given here.
Observed property: max activity

[[record]]
structure = "C[C@@H]1CN([C@@H](C)CO)C(=O)Cc2cc(NC(=O)Nc3ccc(C(F)(F)F)cc3)ccc2O[C@H]1CN(C)Cc1ccc(Oc2ccccc2)cc1"
observed_property = "max activity"
result = "-19.5% (inactive)"


* * *

# Measured target: Follistatin-related protein 3 (Homo sapiens)
# Protocol details: FSTL3 binders on small-molecule microarrays, primary screen, biochemical, small-molecule microarray, 635 nm fluorescence (AID 1105);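 further: score merges emission near 667 nm and signal to noise per printed spot across three slides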
# Condition notes: FSTL3 binding, higher = more signal
Observed property: composite z-score

[[record]]
compound = "Cc1ccc(S[C@]2(C(=O)NC3CC3)CC(=O)N(Cc3ccccc3C(F)(F)F)[C@@H]2c2ccc(CO)cc2I)cc1"
measured_target = "Follistatin-related protein 3 (Homo sapiens)"
readout_number = -0.292

[[record]]
compound = "COc1ccc([Si](C)(C)[C@@H]2[C@@H](CCn3cc([C@H](O)c4ccccc4)nn3)O[C@]3(C(=O)N(C)c4c(Br)cc(C)cc43)[C@H]2C)cc1"
measured_target = "Follistatin-related protein 3 (Homo sapiens)"
readout_number = -0.395

[[record]]
compound = "CC(C)N1CC=CC23O[C@@H]4/C=C\\CCCOC(=O)C4[C@H]2C(=O)N(CCCO)[C@@H]3C1=O (some centres undefined)"
measured_target = "Follistatin-related protein 3 (Homo sapiens)"
readout_number = -1.07

[[record]]
compound = "CN(C)CCCC[C@@H]1NC(=O)[C@@H]2C[C@H](C(=O)NCCCCCNC(=O)CS)[C@H](c3cccc(OCCO)c3)N2C1=O"
measured_target = "Follistatin-related protein 3 (Homo sapiens)"
readout_number = 0.356

[[record]]
compound = "C=C(COC)C(=O)CC[C@H](OC(=O)c1ccccc1-c1ccccc1C(=O)O)c1ccccc1OCCO"
measured_target = "Follistatin-related protein 3 (Homo sapiens)"
readout_number = 0.159

[[record]]
compound = "C=CC[C@@H](OC(=O)Nc1ccc(SC)cc1)c1ccc(OCCO)cc1"
measured_target = "Follistatin-related protein 3 (Homo sapiens)"
readout_number = -0.805

[[record]]
compound = "CC(C)(C)OC(=O)CC[C@@]12N=C(c3ccc(OCCCO)cc3)O[C@@H]1c1ccccc1N(Cc1ccccc1)C2=O"
measured_target = "Follistatin-related protein 3 (Homo sapiens)"
readout_number = 0.51

[[record]]
compound = "COC(=O)[C@@]1(CCC(=O)OC(C)(C)C)COC(c2ccc(OCCCO)cc2)=N1"
measured_target = "Follistatin-related protein 3 (Homo sapiens)"
readout_number = -2.47

[[record]]
compound = "CC(C)C[C@@H]1NC(=O)[C@H]2C[C@@H](C(=O)NCCCC[N+](C)(C)C)[C@@H](c3cccc(OCCO)c3)N2C1=O"
measured_target = "Follistatin-related protein 3 (Homo sapiens)"
readout_number = 0.965

[[record]]
compound = "CO[C@H]1O[C@H](CO)[C@@H](OC(=O)Nc2ccccc2)[C@H](OC(=O)Nc2ccccc2-c2ccccc2)[C@H]1OC(=O)Nc1ccccc1-c1ccccc1"
measured_target = "Follistatin-related protein 3 (Homo sapiens)"
readout_number = 0.824

[[record]]
compound = "CC(=O)OC(C/C=C\\B1OC(C)(C)C(C)(C)O1)c1ccccc1 (centres undefined)"
measured_target = "Follistatin-related protein 3 (Homo sapiens)"
readout_number = 0.173

[[record]]
compound = "C=CCNC(=O)[C@@H]1[C@H]2C(=O)O[C@H](c3ccccc3)[C@H](c3ccccc3)N2[C@H](c2ccc(O)cc2)[C@@]12C(=O)Nc1ccccc12"
measured_target = "Follistatin-related protein 3 (Homo sapiens)"
readout_number = 0.133

[[record]]
compound = "CCN(CC)c1ccc(N2CC=CC34O[C@@H]5C=CCOC(=O)[C@@H]5[C@H]3C(=O)N(C(C)CO)[C@@H]4C2=O)cc1 (some centres undefined)"
measured_target = "Follistatin-related protein 3 (Homo sapiens)"
readout_number = -1.5

[[record]]
compound = "C=CCC(OC(C)=O)[C@@H]1[C@@H](N(Cc2cccc3ccccc23)C(=O)Cc2ccc(OC)cc2)c2cc(OCCCO)ccc2N1C(=O)Cc1ccc(OC)cc1 (some centres undefined)"
measured_target = "Follistatin-related protein 3 (Homo sapiens)"
readout_number = -0.134


* * *

# Protocol details: A549 lung cancer cell viability effects, profiling panel, resazurin fluorescence, 24 h, PK04 Diversity Set (AID 1171)
# Condition notes: higher = more signal, called active from +8 up or from −8 down
Please note: satisfied applies when z-score is 1 or greater, and not satisfied applies otherwise.

[[record]]
compound = "CCCCCN1CC=CC23O[C@@H]4/C=C\\CCC(C)OC(=O)C4[C@H]2C(=O)N(CCCO)[C@@H]3C1=O (stereo partly specified)"
qualitative_label = "not satisfied"

[[record]]
compound = "COc1ccc(/C=C/C(=O)c2cccc(OCC(=O)OC(C)(C)C)c2)cc1"
qualitative_label = "satisfied"

[[record]]
compound = "CC(C)(C)OC(=O)CC[C@]1(C(=O)NCc2ccccc2)COC(c2ccc(OCCCO)cc2)=N1"
qualitative_label = "satisfied"

[[record]]
compound = "C=CC[C@]1(C(=O)N2CCCCC2)COC(c2ccc(OCCCO)cc2)=N1"
qualitative_label = "not satisfied"

[[record]]
compound = "COC(=O)c1c(CC[C@@H](CO)NC(=O)Nc2ccc(OC)cc2)oc(C(=O)Cc2ccccc2)c1C(=O)OC"
qualitative_label = "not satisfied"

[[record]]
compound = "COc1ccc(CCNC(=O)[C@@]2(Sc3ccc(C)cc3)CC(=O)N(Cc3ccccc3)[C@@H]2c2ccc(CO)cc2I)cc1"
qualitative_label = "satisfied"

[[record]]
compound = "COCCCN1C(=O)[C@@]2(Cc3ccccc31)c1ccccc1C(=O)N(Cc1ccccc1Cl)[C@H]2c1ccc(CO)cc1"
qualitative_label = "not satisfied"

[[record]]
compound = "C=CC[C@@H](OC(=O)Nc1ccc(SC)cc1)c1ccc(OCCO)cc1"
qualitative_label = "not satisfied"

[[record]]
compound = "COCCCNC(=O)[C@@]1(C)c2ccccc2C(=O)N(Cc2cc(F)cc(C(F)(F)F)c2)[C@H]1c1ccc(CO)cc1"
qualitative_label = "not satisfied"

[[record]]
compound = "C=CCNC(=O)[C@H]1[C@@H]2C(=O)O[C@@H](c3ccccc3)[C@@H](c3ccccc3)N2[C@@H](c2ccccc2OCCO)[C@]12C(=O)N(C(=O)OCCOC)c1ccc(C#CCCO)cc12"
qualitative_label = "not satisfied"

[[record]]
compound = "C=C1C=C(Br)C2(OCCCO2)[C@H]2OC12 (stereo partly specified)"
qualitative_label = "not satisfied"

[[record]]
compound = "CC(C)NC(=O)[C@@H]1c2ccccc2C(=O)N(Cc2cc(F)cc(C(F)(F)F)c2)[C@H]1c1ccc(CO)cc1"
qualitative_label = "satisfied"

[[record]]
compound = "O=C(NC1CC1)[C@@H]1c2ccccc2C(=O)N(Cc2ccccc2C(F)(F)F)[C@H]1c1ccc(CO)cc1"
qualitative_label = "satisfied"

[[record]]
compound = "COCCOC(=O)N1C(=O)[C@@]2(c3cc(C#CC4(O)CCCCCC4)ccc31)[C@H](c1ccccc1OCCO)N1[C@H](c3ccccc3)[C@H](c3ccccc3)OC(=O)[C@H]1[C@@H]2C(=O)Nc1nc2ccccc2s1"
qualitative_label = "not satisfied"

[[record]]
compound = "CCOC(=O)C[C@H]1[C@H](OC(=O)c2ccc(-c3ccccc3)cc2)[C@@H](NC(=O)c2ccccc2)c2cc(OCCCO)ccc2N1C(=O)c1ccccc1"
qualitative_label = "not satisfied"

[[record]]
compound = "CCCCC(=C=CC[C@H](O)c1cccc(OCCO)c1)CCO"
qualitative_label = "satisfied"


* * *

# Protocol details: HepG2 cell cytotoxicity, dose response, cytotoxicity control, cherry-picks, set 2 (AID 687002)
# Condition notes: HepG2 viability, ATP luminescence (CellTiter-Glo), 48 h; series mostly up to 26 µM
Measured potencies and affinities stand elsewhere. The source made the active and inactive calls.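 The calls were made as follows: active = a dose-response fit showing signal loss, with half-maximal concentration no higher than twice the top tested dose; inconclusive = flat fit between 30% and 70% signal loss, or poor fit; inactive = the rest.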
Observed property: activity change, negative = cytotoxicity

[[record]]
structure = "CO[C@@H]1CN(C)C(=O)c2ccc(NC(=O)Nc3ccccc3)cc2OC[C@H](C)N(C(C)=O)C[C@H]1C"
observed_property = "activity change, negative = cytotoxicity"
result = "inactive"

[[record]]
structure = "COc1ccccc1-c1cnc2c(c1)C(=O)N([C@H](C)CO)C[C@@H](C)[C@H](CN(C)Cc1cncnc1)O2"
observed_property = "activity change, negative = cytotoxicity"
result = "inactive"

[[record]]
structure = "COc1ccccc1C(=O)Nc1ccc2c(c1)C(=O)N(C)C[C@@H](OC)[C@H](C)CN(C)[C@@H](C)CO2"
observed_property = "activity change, negative = cytotoxicity"
result = "inactive"


* * *

# Protocol details: HepG2 cell cytotoxicity, dose response, cytotoxicity control, cherry-picks, set 2 (AID 687002)
# Condition notes: HepG2 viability, ATP luminescence (CellTiter-Glo), 48 h; series mostly up to 26 µM
Results with a measured potency or affinity are listed apart. Activity calls are given as the source filed them.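 The calls were made as follows: active = a dose-response fit showing signal loss, with half-maximal concentration no higher than twice the top tested dose; inconclusive = flat fit between 30% and 70% signal loss, or poor fit; inactive = the rest.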
Observed property: activity change, negative = cytotoxicity

[[record]]
molecule = "O=C(C[C@H]1CC[C@H]2[C@@H](COC[C@H](O)CN2Cc2cc(F)cc(F)c2)O1)Nc1nccs1"
result = "inactive"

[[record]]
molecule = "COC(=O)C1=C(C)N(Cc2ccc(Br)cc2)C(=S)NC1c1cccc(Cl)c1 (stereo unspecified)"
result = "inactive"

[[record]]
molecule = "Cc1cc(C)c(NC(=O)C2CCC(=O)N2)c(C)c1 (stereo unspecified)"
result = "inactive"

[[record]]
molecule = "CC1CCCCN1C(=O)CSc1nc(C2CC2)nc2c1cnn2-c1ccccc1 (stereo unspecified)"
result = "inactive"

[[record]]
molecule = "COCC(=O)N1[C@H](C#N)[C@H](c2ccc(C#Cc3ccccc3F)cc2)[C@H]1CO"
result = "inactive"

[[record]]
molecule = "O=C(CN(c1ccccc1)S(=O)(=O)c1ccc(F)cc1)NC1CCS(=O)(=O)C1 (stereo unspecified)"
result = "inactive"

[[record]]
molecule = "Fc1cccc(CCN2C(=S)NC[C@@H]2Cc2ccccc2)c1"
result = "inactive"

[[record]]
molecule = "CC=Cc1ccc2n(c1=O)C[C@H]1[C@H](CO)[C@@H](C(=O)N3CCOCC3)N(CC3CC3)[C@@H]21 (mixture of isomers)"
result = "inactive"

[[record]]
molecule = "S=C(Nc1cccc(Cl)c1)Nc1ccccc1Oc1ccccc1"
result = "inactive"

[[record]]
molecule = "COc1ccc(C(=O)NC(=S)Nc2cccc(Cl)c2N2CCOCC2)cc1[N+](=O)[O-]"
result = "inactive"

[[record]]
molecule = "CCCN1C[C@@H](C)[C@H](OC)CN(C)C(=O)c2ccc(NC(=O)c3cccc(F)c3)cc2OC[C@@H]1C"
result = "inactive"

[[record]]
molecule = "COc1ccc(CN(C)C[C@@H]2Oc3ccc(NC(=O)C4CC4)cc3C(=O)N([C@@H](C)CO)C[C@H]2C)cc1"
result = "inactive"

[[record]]
molecule = "COc1cccc(S(=O)(=O)N2C[C@@H](O)COC[C@@H]3O[C@H](CC(=O)N4CCN(C)CC4)CC[C@H]32)c1"
result = "inactive"

[[record]]
molecule = "C[C@H]1CN([C@@H](C)CO)C(=O)c2cc(NC(=O)Nc3ccc4c(c3)OCO4)ccc2O[C@@H]1CN(C)CC1CCCCC1"
result = "inactive"

[[record]]
molecule = "CO[C@H]1CC[C@@H]2CCOc3c(C#N)cccc3C(=O)N(C)C[C@H](OC)[C@@H](C)C(=O)N(C)C[C@@H]1O2"
result = "inactive"

[[record]]
molecule = "O=C(CSc1nc(CCC2CCCC2)nc2ccccc12)NCc1ccc2c(c1)OCO2"
result = "inactive"

[[record]]
molecule = "Cc1ccc(OCCn2c(=S)[nH]c3ccccc32)c(C(C)C)c1"
result = "inactive"

[[record]]
molecule = "O=C(Oc1ccc2c3c(c(=O)oc2c1)CCCC3)c1ccco1"
result = "inactive"

[[record]]
molecule = "O=C(NC(=S)Nc1ccccc1N1CCCC1)c1ccccc1[N+](=O)[O-]"
result = "inactive"

[[record]]
molecule = "CCS(=O)(=O)NCC[C@H]1CC[C@H](NS(=O)(=O)c2cccc(F)c2)[C@H](CO)O1"
result = "inactive"

[[record]]
molecule = "C[C@H]1CCCCO[C@@H](CN(C)Cc2ccncc2)[C@@H](C)CN([C@@H](C)CO)C(=O)c2cc(NC(=O)Nc3ccccc3)ccc2O1"
result = "inactive"

[[record]]
molecule = "C[C@H](CO)N1C[C@H](C)[C@@H](CN(C)CC2CCOCC2)Oc2ncc(C#Cc3ccc(F)cc3)cc2C1=O"
result = "inactive"

[[record]]
molecule = "CCCCN1CCCCC1C(=O)Nc1c(C)cccc1C (stereo unspecified)"
result = "inactive"

[[record]]
molecule = "COc1ccccc1-c1ccc([C@H]2[C@@H](C#N)N(C(=O)C3CC3)[C@@H]2CO)cc1"
result = "inactive"

[[record]]
molecule = "C[C@@H]1CN([C@@H](C)CO)C(=O)c2cc(N(C)C)ccc2O[C@@H]1CN(C)C(=O)Nc1ccc(C(F)(F)F)cc1"
result = "inactive"

[[record]]
molecule = "O=C(Nc1ccc(N2CCOCC2)cc1N1CCOCC1)c1cccc([N+](=O)[O-])c1"
result = "inactive"

[[record]]
molecule = "COCC(=O)NC[C@H]1N[C@H](CO)[C@H]1c1ccc(C2=CCCC2)cc1"
result = "inactive"

[[record]]
molecule = "C[C@@H]1CCCCO[C@@H](CN(C)S(=O)(=O)c2cccs2)[C@H](C)CN([C@@H](C)CO)C(=O)c2cc(NC(=O)CCC(F)(F)F)ccc2O1"
result = "inactive"

[[record]]
molecule = "Cc1ccc(S(=O)(=O)N(C)C[C@H]2Oc3c(cccc3N(C)C)C(=O)N([C@@H](C)CO)C[C@H]2C)cc1"
result = "inactive"

[[record]]
molecule = "Cc1ccc2cc(NC(=O)c3ccccc3)ccc2n1"
result = "inactive"

[[record]]
molecule = "C[C@@H]1CN([C@@H](C)CO)C(=O)c2cc(NC(=O)Nc3ccc(F)cc3)ccc2O[C@@H](C)CCCCO[C@H]1CN(C)S(=O)(=O)c1ccccc1"
result = "inactive"

[[record]]
molecule = "COc1ccc(CNC(=O)C[C@H]2CC[C@H]3[C@@H](COc4ccc(NC(=O)C5CC5)cc4C(=O)N3C)O2)cc1"
result = "inactive"

[[record]]
molecule = "COc1ccc(-c2cnc3c(c2)C(=O)N([C@H](C)CO)C[C@H](C)[C@H](CN(C)Cc2ccc(F)cc2)O3)cc1"
result = "inactive"

[[record]]
molecule = "O=C(C[C@@H]1C=C[C@@H](NC(=O)c2cccc(F)c2)[C@H](CO)O1)NCCN1CCCC1"
result = "inactive"

[[record]]
molecule = "Cc1ccc(C2CCN(C(=S)NC3CCCCC3)C2)cc1 (stereo unspecified)"
result = "inactive"

[[record]]
molecule = "CC(=O)c1cccc(NC(=S)NC2CCCCC2)c1"
result = "inactive"

